assay: Cytotoxicity on RD host cells; format: cell-based; details: human, RD cells, Enterovirus D68 screen, Visual, read-out: CC50
ASSAY_METRIC: CC50

1. CC(C)S(=O)(=O)n1c(N)nc2ccc(/C(=N/O)c3ccccc3)cc21: 32 µg/mL
2. CC#C[C@]1(O)CC[C@H]2[C@@H]3CCC4=CC(=O)CCC4=C3[C@@H](c3ccc4c(c3)OCO4)C[C@@]21C: 3.2 µg/mL

###

assay: in vitro; details: dog, Cytotoxicity 50% CC50
ASSAY_METRIC: CC50

1) CC#C[C@]1(O)CC[C@H]2[C@@H]3CCC4=CC(=O)CCC4=C3[C@@H](c3ccc4c(c3)OCO4)C[C@@]21C [PT150]: 17 µM

###

test: Cytotoxicity on primary human foreskin fibroblasts; conditions: human, primary human foreskin fibroblasts (HFF-1), CC50, Herpes simplex virus type 1 screen, Primary HFF-1, CellTiter-Glo
ASSAY_METRIC: CC50

1) Nc1nc2c(ncn2COCCO)c(=O)[nH]1 [Aciclovir]: > 150 µM
2) CC#C[C@]1(O)CC[C@H]2[C@@H]3CCC4=CC(=O)CCC4=C3[C@@H](c3ccc4c(c3)OCO4)C[C@@]21C [PT150]: > 150 µM

###

tested on: Yellow fever virus 17D; assay: microbe, parasite or virus in culture; type: cell-based; conditions: Yellow fever virus, Vero 76, read-out: EC50 NR
ASSAY_METRIC: EC50

1. CC#C[C@]1(O)CC[C@H]2[C@@H]3CCC4=CC(=O)CCC4=C3[C@@H](c3ccc4c(c3)OCO4)C[C@@]21C [PT150]: > 10.9 µM

###

test: in vitro; details: human, Cytotoxicity 50% CC50
ASSAY_METRIC: CC50 (µM)

1. CC#C[C@]1(O)CC[C@H]2[C@@H]3CCC4=CC(=O)CCC4=C3[C@@H](c3ccc4c(c3)OCO4)C[C@@]21C: 7.4

###

tested on: HFF; assay: Cytotoxicity on primary human foreskin fibroblasts
ASSAY_METRIC: CC50

1) CC#CC1(O)CCC2C3CCC4=CC(=NNC(N)=S)CCC4=C3C(c3ccc4c(c3)OCO4)CC21C.CC#CC1(O)CCC2C3CCC4=CC(=O)CCC4=C3C(c3ccc4c(c3)OCO4)CC21C.CC(C)=O.CCO.O (stereo not shown): > 150 µM

###

system: Enterovirus D68 US/KY/14-18953; test: Enterovirus D68 antiviral screen in RD; type: cell-based; details: Enterovirus D, Enterovirus D68, RD; Tables 5-6; read-out: EC50 NR
pEC50: −log10 of the molar value.
ASSAY_METRIC: pEC50

1. CC#C[C@]1(O)CC[C@H]2[C@@H]3CCC4=CC(=O)CCC4=C3[C@@H](c3ccc4c(c3)OCO4)C[C@@]21C: < 4.99

###

Some molecules, each annotated with its measured CC50.
assay: Cytotoxicity on RD host cells; type: cell-based; settings: human, RD cells, Enterovirus D68 screen, Neutral red, read-out: CC50
ASSAY_METRIC: CC50 (µg/mL)

1. CC#C[C@]1(O)CC[C@H]2[C@@H]3CCC4=CC(=O)CCC4=C3[C@@H](c3ccc4c(c3)OCO4)C[C@@]21C: 2.6
2. CC(C)S(=O)(=O)n1c(N)nc2ccc(/C(=N/O)c3ccccc3)cc21: 25

###

assay: in vitro; conditions: human
Measured CC50 of individual entries
ASSAY_METRIC: CC50

1) Cc1cn([C@H]2C[C@H](N=[N+]=[N-])[C@@H](CO)O2)c(=O)[nH]c1=O [AZT, 3′-azido-3′-deoxythymidine, reference compound]: > 100 µM
2) Nc1ccn([C@@H]2O[C@H](CO)[C@@H](O)[C@H]2O)c(=O)[n+]1[C-2][n+]1c(N)ccn([C@@H]2O[C@H](CO)[C@@H](O)[C@H]2O)c1=O [TCY-1]: > 100 µM
3) C[C@@H]1C[C@@H]([C@H](O)CC2CC(=O)NC(=O)C2)C(=O)[C@@H](C)C1 [Cycloheximide]: 0.5 µM

###

assay: Cytotoxicity on RD host cells; type: cell-based; details: human, RD cells, Cytotoxicity 50% CC50, Enterovirus D68 screen, Tables 5-6
ASSAY_METRIC: CC50

1) CC#C[C@]1(O)CC[C@H]2[C@@H]3CCC4=CC(=O)CCC4=C3[C@@H](c3ccc4c(c3)OCO4)C[C@@]21C: 10.2 µM

###

system: Vero; details: African green monkey
ASSAY_METRIC: CC50

1. Cc1cn([C@H]2C[C@H](N=[N+]=[N-])[C@@H](CO)O2)c(=O)[nH]c1=O [AZT, 3′-azido-3′-deoxythymidine, reference compound]: 39.5 µM

###

test: in vitro; settings: African green monkey, CC50
ASSAY_METRIC: CC50 (µM)

1) C[C@@H]1C[C@@H]([C@H](O)CC2CC(=O)NC(=O)C2)C(=O)[C@@H](C)C1 [Cycloheximide]: 0.2

###

Below, each entry is listed with its recorded CC50.
tested on: RAW267.4; assay: Toxicity in RAW267.4 cells (neutral red); settings: Neutral Red (Toxicity), Example 11
ASSAY_METRIC: CC50 (µM)

1. CC#C[C@]1(O)CC[C@H]2[C@@H]3CCC4=CC(=O)CCC4=C3[C@@H](c3ccc4c(c3)OCO4)C[C@@]21C: 34
2. CC#CC1(O)CCC2C3CCC4=CC(=NNC(=S)Nc5ccccc5)CCC4=C3C(c3ccc4c(c3)OCO4)CC21C.CC#CC1(O)CCC2C3CCC4=CC(=O)CCC4=C3C(c3ccc4c(c3)OCO4)CC21C (mixture of isomers): 33
3. CC#CC1(O)CCC2C3CCC4=CC(=NNC(N)=S)CCC4=C3C(c3ccc4c(c3)OCO4)CC21C.CC#CC1(O)CCC2C3CCC4=CC(=O)CCC4=C3C(c3ccc4c(c3)OCO4)CC21C.CC(C)=O.CCO.O (stereo not drawn): 34

###

test system: Yellow Fever 17D Vaccine; assay: microbe, parasite or virus in culture; type: cell-based, yellow fever virus; details: read-out: EC50
ASSAY_METRIC: EC50

1) CC#CC1(O)CCC2C3CCC4=CC(=NNC(N)=S)CCC4=C3C(c3ccc4c(c3)OCO4)CC21C.CC#CC1(O)CCC2C3CCC4=CC(=O)CCC4=C3C(c3ccc4c(c3)OCO4)CC21C.CC(C)=O.CCO.O (stereo not shown): < 2100 nM

###

system: CCRF-CEM; test: Cytotoxicity on CCRF-CEM; details: read-out: Cytotoxicity CC50; CCRF-CEM
ASSAY_METRIC: CC50 (µM)

1. CC#CC1(O)CCC2C3CCC4=CC(=NNC(N)=S)CCC4=C3C(c3ccc4c(c3)OCO4)CC21C.CC#CC1(O)CCC2C3CCC4=CC(=O)CCC4=C3C(c3ccc4c(c3)OCO4)CC21C.CC(C)=O.CCO.O (centres unmarked) [PT155]: 7.1
2. Cc1cn([C@H]2C[C@H](N=[N+]=[N-])[C@@H](CO)O2)c(=O)[nH]c1=O [AZT, 3′-azido-3′-deoxythymidine, reference compound]: 14.3

###

assay: Cytotoxicity on RD host cells; assay type: cell-based; conditions: human, RD cells, Enterovirus 68 screen, Table 4, read-out: CC50
ASSAY_METRIC: CC50 (µM)

1) CC#C[C@]1(O)CC[C@H]2[C@@H]3CCC4=CC(=O)CCC4=C3[C@@H](c3ccc4c(c3)OCO4)C[C@@]21C [PT150]: 10.2

###

test system: Vero 76
ASSAY_METRIC: CC50 (µM)

1. CC#CC1(O)CCC2C3CCC4=CC(=NNC(N)=S)CCC4=C3C(c3ccc4c(c3)OCO4)CC21C.CC#CC1(O)CCC2C3CCC4=CC(=O)CCC4=C3C(c3ccc4c(c3)OCO4)CC21C.CC(C)=O.CCO.O (stereo not shown) [PT155]: 45.4

###

Listed here are molecules together with their documented CC50.
test system: HFF; assay: Cytotoxicity on primary human foreskin fibroblasts; details: HFF / HFF-1 primary cells
ASSAY_METRIC: CC50

1) CC#CC1(O)CCC2C3CCC4=CC(=NNC(N)=S)CCC4=C3C(c3ccc4c(c3)OCO4)CC21C.CC#CC1(O)CCC2C3CCC4=CC(=O)CCC4=C3C(c3ccc4c(c3)OCO4)CC21C.CC(C)=O.CCO.O (centres unmarked): < 150 µM
2) CC#C[C@]1(O)CC[C@H]2[C@@H]3CCC4=CC(=O)CCC4=C3[C@@H](c3ccc4c(c3)OCO4)C[C@@]21C: < 150 µM

###

tested on: RD; assay: Cytotoxicity on RD host cells; type: cell-based; conditions: read-out: Cytotoxicity 50% CC50, Enterovirus D68 screen, Tables 5-6
ASSAY_METRIC: CC50 (µM)

1) CC#CC1(O)CCC2C3CCC4=CC(=NNC(N)=S)CCC4=C3C(c3ccc4c(c3)OCO4)CC21C.CC#CC1(O)CCC2C3CCC4=CC(=O)CCC4=C3C(c3ccc4c(c3)OCO4)CC21C.CC(C)=O.CCO.O (stereo not shown) [PT155]: 5.8
